# credit: paper PMC11086168

- Target of assay: thrombin (human plasma, UniProt P00734;P00734 328-363;364-622)
- Assay summary: SPR (LSPR); Experiment 1; PBS-T; printed as KA from Hill fit (half-saturation, in nM); aptamer immobilized on His-SA/Ni-NTA; BSA present; LSPR on Ni-NTA chip with His-SA capture; sample buffer PBS-T (1X PBS, 0.05% Tween 20); immobilization in PBS-T or PBS-I (1X PBS, 300 mM NaCl total, pH 8.0); 20
Measured endpoint: Kd (nM)
The figure you give is taken to be in nM; do not add the unit.

Problem: Give me measured Kd, please, for this binder: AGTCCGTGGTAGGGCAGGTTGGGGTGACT (structured_DNA, 5' biotin (5Biosg)) [B-29mer (biotinylated thrombin-binding aptamer)]
Solution: 31.2
